These data points were gathered from paper PMC6271590.

Target: β-Glucuronidase (E.C. 3.2.1.31 from bovine liver) (Bos taurus)
Construct: β-Glucuronidase (E.C. 3.2.1.31 from bovine liver, G-0251); purchased Sigma Chemical Co. (St. Louis, MO, USA) G-0251; host or cells: bovine liver (tissue-derived preparation)
Assay: In vitro β-glucuronidase inhibition assay (p-nitrophenyl-β-D-glucuronide, absorbance at 405 nm)
Assay type: biochemical
Conditions: qualitative statement
reportedProperty: β-glucuronidase inhibitory activity in words

Examples with answers:
1) Cc1cc(Cl)ccc1OCC(=O)NN=Cc1ccc(Cl)cc1	excellent activity
2) Cc1cc(Cl)ccc1OCC(=O)NN=Cc1ccccc1[N+](=O)[O-]	excellent activity
3) Cc1cc(Cl)ccc1OCC(=O)NN=Cc1ccc2ccccc2c1	excellent activity
4) Cc1cc(Cl)ccc1OCC(=O)NN=Cc1ccccc1F	excellent activity
5) Cc1cc(Cl)ccc1OCC(=O)NN=Cc1ccc(O)cc1	completely inactive

Give a short answer stating reported β-glucuronidase inhibitory activity in words for Cc1cc(Cl)ccc1OCC(=O)NN=Cc1ccco1 .
completely inactive

Give a short answer stating reported β-glucuronidase inhibitory activity in words for Cc1cc(Cl)ccc1OCC(=O)NN=Cc1cccc(O)c1O .
excellent activity

Give a short answer stating reported β-glucuronidase inhibitory activity in words for Cc1cc(Cl)ccc1OCC(=O)NN=Cc1cccc2ccccc12 .
excellent activity

Give a short answer stating reported β-glucuronidase inhibitory activity in words for Cc1ccc(C=NNC(=O)COc2ccc(Cl)cc2C)o1 .
completely inactive

====

Target: β-Glucuronidase (E.C. 3.2.1.31 from bovine liver) (Bos taurus)
Construct: β-Glucuronidase (E.C. 3.2.1.31 from bovine liver, G-0251); purchased Sigma Chemical Co. (St. Louis, MO, USA) G-0251; host or cells: bovine liver (tissue-derived preparation)
Experiment: In vitro β-glucuronidase inhibition assay (p-nitrophenyl-β-D-glucuronide, absorbance at 405 nm)
Format: biochemical
Settings: qualitative statement
reportedProperty: β-glucuronidase inhibitory activity in words

1) COc1ccccc1C=CC=NNC(=O)COc1ccc(Cl)cc1C [Compound 1]	excellent activity
2) Cc1cc(Cl)ccc1OCC(=O)NN=Cc1ccsc1 [Compound 12]	excellent activity
3) Cc1cc(Cl)ccc1OCC(=O)NN=Cc1c(Cl)cccc1Cl [Compound 10]	completely inactive
4) CC(=NNC(=O)COc1ccc(Cl)cc1C)c1ccc(O)cc1 [Compound 17]	completely inactive

Give a short answer stating reported β-glucuronidase inhibitory activity in words for CC(=NNC(=O)COc1ccc(Cl)cc1C)c1c(O)cc(O)cc1O [Compound 19] .
completely inactive

====

Biological target: β-Glucuronidase (E.C. 3.2.1.31 from bovine liver) (Bos taurus, UniProt A3KMY8)
Construct: β-Glucuronidase (E.C. 3.2.1.31 from bovine liver, G-0251); purchased Sigma Chemical Co. (St. Louis, MO, USA) G-0251; host or cells: bovine liver (tissue-derived preparation)
Sequence (A3KMY8 1-652): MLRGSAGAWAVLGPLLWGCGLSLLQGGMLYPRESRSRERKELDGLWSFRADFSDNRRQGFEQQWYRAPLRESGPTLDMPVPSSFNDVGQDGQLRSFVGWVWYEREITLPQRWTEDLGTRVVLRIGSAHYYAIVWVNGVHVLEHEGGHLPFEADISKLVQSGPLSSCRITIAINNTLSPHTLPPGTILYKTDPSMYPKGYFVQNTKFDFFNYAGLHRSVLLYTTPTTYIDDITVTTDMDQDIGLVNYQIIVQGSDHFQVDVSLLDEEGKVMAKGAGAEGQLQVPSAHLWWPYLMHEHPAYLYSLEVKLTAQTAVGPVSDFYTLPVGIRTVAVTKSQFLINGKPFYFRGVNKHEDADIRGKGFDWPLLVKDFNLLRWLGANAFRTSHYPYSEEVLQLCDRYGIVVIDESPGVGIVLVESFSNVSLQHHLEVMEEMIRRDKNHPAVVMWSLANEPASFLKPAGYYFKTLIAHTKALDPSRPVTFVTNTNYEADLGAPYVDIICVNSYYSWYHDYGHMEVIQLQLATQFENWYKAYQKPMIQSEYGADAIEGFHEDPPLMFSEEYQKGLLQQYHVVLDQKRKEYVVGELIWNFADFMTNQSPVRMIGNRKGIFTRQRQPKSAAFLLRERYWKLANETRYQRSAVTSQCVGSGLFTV
Assay: In vitro β-glucuronidase inhibition assay (p-nitrophenyl-β-D-glucuronide, absorbance at 405 nm)
Type: biochemical
Details: qualitative statement
Method: Synthetic acyl hydrazides Schiff bases 1–28 were screened for their in vitro potential as β-glucoronidase inhibitors. The in vitro β-glucornidase inhibitory potential was evaluated by using the literature protocol. […] β-D-Glucuronidase inhibition was determined by measuring the absorbance of the p-nitrophenol which is produce from the substrate at 405 nm. […] The plates were read on a multiplate reader at 405 nm after the addition of 50 µL of 0.4 mM p-nitrophenyl-β-D-glucuronide. […]
reportedProperty: β-glucuronidase inhibitory activity in words

1. Cc1cc(Cl)ccc1OCC(=O)NN=Cc1cccc(O)c1	completely inactive
2. Cc1cc(Cl)ccc1OCC(=O)NN=Cc1ccc(Cl)c(Cl)c1	completely inactive
3. Cc1cc(Cl)ccc1OCC(=O)NN=Cc1ccc(O)c(O)c1	completely inactive
